pIC50: −log10 of the molar value.
Please find below pIC50 data on Tyrosine-protein phosphatase non-receptor type 1 (Homo sapiens) compiled from the literature.
PROPERTY LABEL: pIC50

Reference set (4 entries):
[[record]]
compound = "CNc1nc(N)nc2nc3c(cc12)CCc1ccccc1-3"
property_label = "pIC50"
reported_result = 5.37

[[record]]
compound = "Cc1cccc(C)c1-c1ccc2c(NCCO)nc(N)nc2c1"
property_label = "pIC50"
reported_result = 5.50

[[record]]
compound = "CCc1csc([C@H](Cc2ccc(NS(=O)(=O)O)cc2)NC(=O)[C@H](CC(C)C)NC(=O)OC(C)(C)C)n1"
property_label = "pIC50"
reported_result = 6.32

[[record]]
compound = "Cc1cc(C)n(-c2ccccc2NC(=O)c2ccc3sc(C(F)(F)P(=O)(O)O)c(Br)c3c2)n1"
property_label = "pIC50"
reported_result = 5.23


[P] O=C1CCC(CNC(=O)c2ccc3sc(C(F)(F)P(=O)(O)O)c(Br)c3c2)N1 (centres unmarked)
[Q] O=C(NCc1cccnc1)c1ccc2sc(C(F)(F)P(=O)(O)O)c(Br)c2c1
[R] Cc1ccc(-c2ccc(O[C@H](Cc3ccccc3)C(=O)O)cc2)n1-c1ccc(C(F)(F)F)cc1
[S] COc1cccc(NC(=O)c2ccc3sc(C(F)(F)P(=O)(O)O)c(Br)c3c2)c1
(Q) Please list the entries, largest pIC50 first. List the labels in the requested order.
(A) R, S, Q, P

----------
Here's a roundup of IC50 values tested on UniProt:P18031, taken from various published works.
PROPERTY LABEL: IC50 (nM)

[A] CS(=O)(=O)NCCCOc1cc(C(N)=O)cc2c(Br)c(C(F)(F)P(=O)(O)O)sc12
[B] CNc1nc(N)nc2nc(C3CCCCC3)ccc12
(Q) I'm curious whether A or B has the smaller IC50 number. Which is it? Reply briefly: the label of your chosen item.
(A) A

[a] NC(=O)c1cc(OCc2ccc(S(N)(=O)=O)cc2)c2sc(C(F)(F)P(=O)(O)O)c(Br)c2c1
[b] O=C(O)/C=C/c1ccc(-c2nc3cc(Cl)c(Cl)cc3nc2-c2ccc(/C=C/C(=O)O)cc2)cc1
[c] CC1CCc2c(sc(NC(=O)c3ccc4sc(C(F)(F)P(=O)(O)O)c(Br)c4c3)c2C#N)C1 (centres unmarked)
[d] O=C(Nc1ccccc1)c1ccc2sc(C(F)(F)P(=O)(O)O)c(Cl)c2c1
[e] COC(=O)N[C@@H](Cc1ccccc1)C(=O)N[C@@H](Cc1ccc(NS(=O)(=O)O)cc1)c1nc(C(C)(C)C)cs1
(Q) Rank order required: IC50, descending. // ordering of labels required in reply
(A) d, b, e, c, a

[a] O=C(NCCc1nc(-c2ccccc2)cs1)c1ccc2sc(C(F)(F)P(=O)(O)O)c(Br)c2c1
[b] CC(F)(F)CCOc1cc(C(N)=O)cc2c(Br)c(C(F)(F)P(=O)(O)O)sc12
(Q) API: POST /compare with a and b ; response names the item with higher IC50. In your reply, give the label of the chosen option.
(A) a

----------
Target or system Tyrosine-protein phosphatase non-receptor type 1 (Homo sapiens); metric IC50; compiled from varied reports.

Here is how some compounds turned out for IC50.
[[record]]
sample_smiles = "CC(C)CCNC(=O)c1cc2c(F)c(N3CC(=O)NS3(=O)=O)c(O)cc2s1"
reported_result = "≤ 1 µM"

[[record]]
sample_smiles = "COC(=O)N[C@@H](Cc1ccccc1)C(=O)N[C@@H](Cc1ccc(NS(=O)(=O)O)cc1)c1csc(CS(=O)(=O)c2ccc(Cl)cc2)n1"
reported_result = "2.54 µM"


Record CC(C)CCOc1cc2c(F)c(N3CC(=O)NS3(=O)=O)c(O)cc2n(C)c1=O / Tyrosine-protein phosphatase non-receptor type 1 (Homo sapiens), IC50 recorded as ≤ 1 µM

Kindly note: Tyrosine-protein phosphatase non-receptor type 1 (Homo sapiens), O=C1CN(c2c(O)ccc(C3=CCNC3)c2F)S(=O)(=O)N1 , IC50 value reported: ≤ 1 µM

----------
Listing of IC50 toward Tyrosine-protein phosphatase non-receptor type 1 (Homo sapiens), each taken from a published source.
PROPERTY LABEL: IC50 (nM)

These solved cases illustrate the format of a correct answer.
[[record]]
compound = "O=C(NCc1cccnc1C(F)(F)F)c1ccc2sc(C(F)(F)P(=O)(O)O)c(Br)c2c1"
property_label = "IC50"
reported_result = 3800

[[record]]
compound = "O=P(O)(O)C(F)(F)c1sc2c(OCCCC(F)(F)F)cc(-c3cn[nH]c3)cc2c1Br"
property_label = "IC50"
reported_result = 287

[[record]]
compound = "CC(C)(O)CCCOc1cc(C(N)=O)cc2c(Br)c(C(F)(F)P(=O)(O)O)sc12"
property_label = "IC50"
reported_result = 25.7


[a] O=C(O)c1ccc(N/N=C/c2cccc(Oc3cccc(-c4nnc(Nc5ccc(Cl)c(Cl)c5)s4)c3)c2)cc1
[b] CCc1csc([C@H](Cc2ccc(NS(=O)(=O)O)cc2)NC(=O)[C@H](Cc2ccccc2)NC(C)=O)n1
[c] COCC(NC(=O)c1ccc2sc(C(F)(F)P(=O)(O)O)c(Br)c2c1)c1ccc(F)cc1 (centres unmarked)
[d] CS(=O)(=O)c1ccc(COc2cc(C(N)=O)cc3c(Br)c(C(F)(F)P(=O)(O)O)sc23)cc1
[e] NC(=O)c1cc(OCc2ccc(OC(F)F)cc2)c2sc(C(F)(F)P(=O)(O)O)c(Br)c2c1
(Q) List by increasing IC50. The reply should contain the labels ordered as requested.
(A) d, e, a, b, c

[I] CC(Cn1cncn1)NC(=O)c1ccc2sc(C(F)(F)P(=O)(O)O)c(Br)c2c1 (centres unmarked)
[II] NC(=O)c1cc(OC[C@H]2C[C@@H](S(N)(=O)=O)C2)c2sc(C(F)(F)P(=O)(O)O)c(Br)c2c1
(Q) Which value of IC50 is smaller, the one for I or the one for II ? Select an item and report its label.
(A) II

----------
Compiled literature IC50, tested on Tyrosine-protein phosphatase non-receptor type 1 (Homo sapiens, UniProt P18031).
PROPERTY LABEL: IC50 (nM)

[[record]]
compound = "O=C(N[C@@H]1CCCC[C@H]1OCc1ccccc1)c1ccc2sc(C(F)(F)P(=O)(O)O)c(Br)c2c1"
property_label = "IC50"
reported_result = 1850

[[record]]
compound = "NC(=O)c1ccc2sc(C(F)(F)P(=O)(O)O)c(Br)c2c1"
property_label = "IC50"
reported_result = 3230

[[record]]
compound = "O=P(O)(O)C(F)(F)c1sc2c(OCCCC(F)(F)F)cc(-c3nc[nH]n3)cc2c1Br"
property_label = "IC50"
reported_result = 3.4

[[record]]
compound = "CCCCNC(=O)C(OC(=O)c1ccc(/C=C/C(=O)O)cc1)C(=O)c1ccc(F)cc1 (centres unmarked)"
property_label = "IC50"
reported_result = 3000


[I] O=C(O)[C@@H](Cc1ccccc1)Oc1ccc(-c2cccn2-c2ccccc2)cc1
[II] O=C(O)/C=C/c1ccc(-c2cccn2-c2ccc(/C=C/C(=O)O)cc2)cc1
[III] O=P(O)(O)C(F)(F)c1sc2ccc(-c3cnn[nH]3)cc2c1Br
(Q) Arrange items by their IC50 values in increasing order. Thanks in advance for listing the labels in the requested order.
(A) III, I, II

[1] CCCOc1ccc(C2COc3c(ccc4c3CCC(C)(C)O4)C2)c(O)c1 (centres unmarked)
[2] O=C(NCC1CCCN(c2ncccn2)C1)c1ccc2sc(C(F)(F)P(=O)(O)O)c(Br)c2c1 (centres unmarked)
[3] COC(=O)N[C@@H](Cc1ccccc1)C(=O)N[C@@H](Cc1ccc(NS(=O)(=O)O)cc1)c1nccs1
(Q) Provide the items ranked by increasing IC50. # list labels per requested ordering
(A) 3, 1, 2

----------
pIC50: −log10 of the molar value.
Tyrosine-protein phosphatase non-receptor type 1 (Homo sapiens) pIC50, compiled from various sources.
PROPERTY LABEL: pIC50

[[record]]
sample_smiles = "CCc1nc([C@H](Cc2ccc(NS(=O)(=O)O)cc2)NC(=O)[C@H](Cc2ccccc2)N(C)C(=O)OC)cs1"
reported_result = 6.15


[A] O=C(NCCC1CCCCC1)c1ccc2sc(C(F)(F)P(=O)(O)O)c(Br)c2c1
[B] CC(C)(O)c1ccc(CNC(=O)c2ccc3sc(C(F)(F)P(=O)(O)O)c(Br)c3c2)cn1
[C] CCc1cnc([C@H](Cc2ccc(NS(=O)(=O)O)cc2)NC(=O)[C@H](Cc2ccccc2)N(C)C(=O)OC)s1
[D] COCc1csc([C@H](Cc2ccc(NS(=O)(=O)O)cc2)NC(=O)OC(C)(C)C)n1
[E] O=C(O)/C=C/c1ccc(-c2nc[nH]c2-c2ccc(/C=C/C(=O)O)cc2)cc1
(Q) // smallest pIC50 at index 0, largest at the end Answer by naming the labels in the order asked.
(A) D, A, B, C, E
(D: 4.56, A: 5.49, B: 5.71, C: 6.19, E: 7.00)
